Test system: M19-MEL
Assay Procedure: NCI tumour cell line growth inhibition, 48 h
Activity calls are given as the source filed them. Rule as the data show it: active = GI50 up to about 1.1 µM and inactive = higher.
Assay Endpoint: GI50

Return reported GI50. Input compound: CCCC(C(=O)OC)C1N/C(=N/C#N)N(Cc2ccccc2)C1=O (stereo unspecified)
> 100 µM (inactive)

Fill in reported GI50 for this entry: COC(=N)/C(=C1\OC(=N)C(c2ccc(Cl)cc2)=C1O)c1ccc(Cl)cc1
> 100 µM (inactive)

Kindly indicate its recorded GI50. Item: COc1ccccc1/C=C\c1cc(OC)c(OC)c(OC)c1
9.1 µM (inactive)

Check the records and state GI50 for CN(C)CCN(C)C(=O)C1CCCN1C(=O)OCc1ccccc1 (stereo unspecified)
> 100 µM (inactive)

Please report the measured GI50 for C[C@H](CN1CC(=O)NC(=O)C1)N1CC(=O)NC(=O)C1
> 100 µM (inactive)

Please look at this compound and report its GI50: Cn1nc(-c2ccccc2)c2c(/C=C/c3ccc(F)cc3)onc2c1=O
> 100 µM (inactive)

Output measured GI50 for this item: CCC(C)c1cccc(C)c1NC(=O)C(=O)Cc1nc2ccccc2s1 (stereo unspecified)
> 100 µM (inactive)

Give the value of GI50 reported for the following: OCC1CCC(n2cnc3c(O)ncnc32)O1 (stereo unspecified)
> 100 µM (inactive)

Please report the measured GI50 for O=C1CSC(C(/N=N/c2ccccc2)=C2Nc3ccccc3N2)=N1
36.7 µM (inactive)

Give the reported GI50 for this compound. O=C/C(=C(/Cl)c1ccc(O)cc1)c1ccccc1
19.7 µM (inactive)

State its GI50: O=C(NN1C(=O)C(Cl)C1c1cccc(Cl)c1)c1ccccc1O (stereo unspecified)
> 100 µM (inactive)

Please supply the value of reported GI50 for the item BrC(Br)([P+](c1ccccc1)(c1ccccc1)c1ccccc1)[P+](c1ccccc1)(c1ccccc1)c1ccccc1
13.3 µM (inactive)

Identify measured GI50 corresponding to Cn1cnc([N+](=O)[O-])c1Sc1ccccn1
> 100 µM (inactive)

Identify GI50 associated with the compound CC(C)=CCC/C(C)=C/CC/C(C)=C/CC/C=C(\C)CC/C=C(\C)CCC1SC1(C)C (stereo unspecified)
> 100 µM (inactive)

Return GI50 (reported value) for this compound: O=C(c1ccccc1)c1c(C(=O)c2ccccc2)c(-c2ccccc2)c2c(-c3ccccc3)sc(-c3ccccc3)c2c1-c1ccccc1
> 100 µM (inactive)

Output GI50 of c1ccc(/N=C2\c3ccccc3C3=NCCCN32)cc1
53.6 µM (inactive)

----------
Tested on: OVCAR-4
Assay Procedure: NCI tumour cell line growth inhibition, 48 h
Calls of active or inactive are those of the source. Cut-off read from the data, not from the text of the source: active = GI50 up to about 1.1 µM and inactive = higher.
Give GI50 for every item shown.

Report GI50 for O=c1c(C(c2cnc3ccccc3c2)c2c(O)oc3ccccc3c2=O)c(O)oc2ccccc12
33.7 µM (inactive)

Let me know recorded GI50 for CC(C)(C)[C@H]1CO[C@]2(C)[C@@H]3C[C@@H]3C(=O)N12 , thanks.
> 100 µM (inactive)

Input CCOC(=O)c1csc(-c2cn(C)c3c2C(=O)C(OC)=CC3=O)n1 , output reported GI50.
42.8 µM (inactive)

Look up and state reported GI50 for COc1cc2cnc3c4cc(O)ccc4ccc3c2cc1OC
26.7 µM (inactive)

Name the recorded GI50 of the item COc1ccc(C2C3=C(COC3=O)Oc3cc4c(cc32)OCO4)cc1 (stereo unspecified) in your answer.
27.3 µM (inactive)

Determine from records and report GI50 for COC(=O)c1c(C#C[Si](C)(C)C)c(C#C[Si](C)(C)C)c(C#C[Si](C)(C)C)c(C#C[Si](C)(C)C)c1C(=O)OC
> 100 µM (inactive)

State its GI50: Oc1cccc(-c2nc3cc(F)ccc3s2)c1
9.42 µM (inactive)

Given COC(=O)[C@H]1COC(=O)N1 , respond with its GI50.
> 100 µM (inactive)

Provide one value: measured GI50 of CSc1nc(=S)[nH]c2[nH]nc(C)c12
> 100 µM (inactive)

Determine from records and report GI50 for ICC1CCCO1 (stereo unspecified)
> 100 µM (inactive)

Determine its reported GI50: CCOC(=O)C1=C(Nc2cccc3ccccc23)OC/C1=N\NC(=O)c1ccccc1O
9.68 µM (inactive)
